For each record, write down the corresponding AUC.
experiment: AUC in Wistar rat at 1 mg/kg, iv
Type: ADME, organism-based
Design: dose 1 mg/kg, route intravenous
condition.set: plasma
Numbers only, in ng·h/mL.

| record.smiles | AUC / ng·h/mL |
| --- | --- |
| CCN(C(=O)CN(c1cc(N(C)C)ccc1Cl)S(=O)(=O)c1ccc(OC)c(OC)c1)c1ccn(C)n1 | 1230 |
| CCN(C(=O)CN(c1cc(N(C)C)ccc1Cl)S(=O)(=O)c1ccc(OC)c(OC)c1)c1cc(C)n(C)n1 | 1140 |

Give measured AUC for every item shown.
1. CCN(C(=O)CN(c1cc(N(C)C)ccc1Cl)S(=O)(=O)c1ccc(OC)c(OC)c1)c1cccc(C)n1
2. CCN(C(=O)CN(c1cc(N(C)C)ccc1Cl)S(=O)(=O)c1ccc(OC)c(OC)c1)c1cnc(C)cn1

1. 434
2. 1290

Report AUC for every entry below.
1. CCN(C(=O)CN(c1cc2c(C)nsc2cc1Cl)S(=O)(=O)c1ccc(OC)c(OC)c1)c1cccc(C)n1
2. CCN(C(=O)CN(c1cc2c(C)nsc2cc1Cl)S(=O)(=O)c1ccc(OC)c(OC)c1)c1ccccn1

1. 536
2. 327

###

tested.on: Orexin receptor type 2 (Homo sapiens, UniProt O43614)
Sequence (O43614 whole entry): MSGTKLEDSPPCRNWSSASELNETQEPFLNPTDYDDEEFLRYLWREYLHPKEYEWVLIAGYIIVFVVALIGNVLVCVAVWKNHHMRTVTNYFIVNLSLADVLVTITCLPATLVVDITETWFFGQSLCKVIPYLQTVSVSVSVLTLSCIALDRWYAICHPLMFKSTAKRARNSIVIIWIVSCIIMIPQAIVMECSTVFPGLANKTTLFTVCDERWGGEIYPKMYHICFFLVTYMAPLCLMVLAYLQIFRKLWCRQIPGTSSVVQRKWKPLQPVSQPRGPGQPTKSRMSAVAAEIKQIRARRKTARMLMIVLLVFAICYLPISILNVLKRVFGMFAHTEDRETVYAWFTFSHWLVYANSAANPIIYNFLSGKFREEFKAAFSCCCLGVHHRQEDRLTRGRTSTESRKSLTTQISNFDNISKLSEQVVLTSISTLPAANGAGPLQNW
experiment: Inhibition of human OX2 receptor expressed in CHO cells assessed as […] calcium mobilization by FLIPR assay
Met if IC50 is below 1000 nM. Not met if not; exact matches included in Not met.

| record.smiles | assigned.label |
| --- | --- |
| CCN(C(=O)CN(c1cc(N(C)C)ccc1Cl)S(=O)(=O)c1ccc(OC)c(OC)c1)c1ccn(C)n1 | Met |
| CCN(CC)C(=O)CN(c1ccc(C)cc1)S(=O)(=O)c1ccc(C#N)cc1 | Not met |
| CCN(CC)C(=O)CN(c1ccc(C)cc1)S(=O)(=O)c1ccc(OC(F)(F)F)cc1 | Not met |
| CCN(CC)C(=O)CN(c1cc2c(C)nsc2cc1Cl)S(=O)(=O)c1ccc(OC)c(OC)c1 | Met |
| CCN(CC)C(=O)CN(c1ccc(C)cc1)S(=O)(=O)c1ccc(Br)cc1 | Met |

Lab note: confirm whether the reported IC50 for this molecule is below 1000 nM, equality not counting. molecule: CCN(CC)C(=O)CN(c1cc(C(C)C)ccc1Cl)S(=O)(=O)c1ccc(OC)c(OC)c1
Met

Query CCN(CC)C(=O)CN(c1ccc(C)cc1)S(=O)(=O)c1ccc(C)cc1 next
Met

Repeat with CCc1ccc(S(=O)(=O)N(CC(=O)N(CC)CC)c2ccc(C)cc2)cc1
Met

Also check CCN(CC)C(=O)CN(c1ccc(C)cc1)S(=O)(=O)c1ccccc1F
Not met
